For each of the sequences below, state its apparent KD of K4 kissing-loop reporter.
System: K4 kissing-loop RNA reporter
PROTOCOL_NOTES: apparent KD of K4 kissing-loop reporter; higher = weaker reporter binding
EXPERIMENTAL_PARAMETERS: Eterna round: R107; input ligand: tryptophan 2.4 mM
Entry format: amount then unit.

Please give the documented apparent KD of K4 kissing-loop reporter of CACAGAUCCUAAGGAUAUGGAGUGAUGUUCGCAAGUUCUUGGUGUGCAUUCAUCUGUCCUAUCAACCCAGAAGGUAGGAAGUCAC [theeternabot_exclusion_KL_FMN_B_1]
0.604 µM

Please give the documented apparent KD of K4 kissing-loop reporter of UGUUAUGUAUCAGGAUAUUAGUGUUGUUUGUUUAUGUUAGUGAUGUUGAUAUUUGUUUUAUGUAUUUAAGAAGGGAUUGAGAUGU [kkplmullin]
0.258 µM

Please give the documented apparent KD of K4 kissing-loop reporter of AUCAGUUCAGCUGAUACCAGUCAGGAGUGAUGUUCCUGCUCGCGUCAGCCGCGUCGACAAGACCCUUGGCAGCAGCUCUAAGUGU [theeternabot_exclusion_KL_Theo_B_40]
0.11 µM

Please give the documented apparent KD of K4 kissing-loop reporter of UUAGAUCAAAGAUCAGUCUUAUGGAGGGAACGAGGACCGGUACGGCCGCCACUCGAGUGAUGUUCGAGAACCCUCGUGACAAAUU [AK4 EXC Tryptophan A]
0.297 µM

Please give the documented apparent KD of K4 kissing-loop reporter of GGUUUAUAGGAGGAUACCAGUACGGAUAAAGUACAUUAAUAGUAGAGUGAUGUUCUAAAGUACCCUUGGCAGCUUAGAUUAAGUU [ExTheophylB.I]
0.074 µM

Please give the documented apparent KD of K4 kissing-loop reporter of CGUGUAAUGUGGAGAUUUGAAAAGGCGCAUCGAGGACCGGUACGGCCGCCACUCGCUACGAGCUAGUGAUGUUGGCUCGUUCGGA [theeternabot_sameState_KL_Trp_A_23]
0.194 µM

###

For each of the sequences below, state its apparent KD of K4 kissing-loop reporter.
Tested on: K4 kissing-loop RNA reporter
PROTOCOL_NOTES: apparent KD of K4 kissing-loop reporter; higher = weaker reporter binding
EXPERIMENTAL_PARAMETERS: Eterna round: R107; input ligand: FMN 200 uM
Output spec: scalar in nM, unitless text.

Fill: apparent KD of K4 kissing-loop reporter (K4 kissing-loop RNA reporter) for this sequence AAUAAAAUCACGGCCGCCACUGAUUAUUUUAUUAGGAGUGAUGUUCCUAUGACAAUAUACCUUAACAGGACCGGGUGAAUAUUUA [JR_ExcTryptoB_Sub010]
87.8

Fill: apparent KD of K4 kissing-loop reporter (K4 kissing-loop RNA reporter) for this sequence CGCAGUGAUGUUGCUAUUAUUCUUGAUUAACGAGGACCGGUACGGCCGCCACUCGGUUUCUAUCUGAUCCAGCGUUUUGUUGAGU [#23 K4 Tryptophan A Exclusion]
474

Fill: apparent KD of K4 kissing-loop reporter (K4 kissing-loop RNA reporter) for this sequence GUAUGUUCGAAAGAACGUACAUCUUCGGAAGGAGCGCGUGAAAACGCAGGUAGGUCGCCGAAGUUAUUAGGUAGUGAUGUUACCU [Arginine A K4 8]
128

Fill: apparent KD of K4 kissing-loop reporter (K4 kissing-loop RNA reporter) for this sequence UUCGUAGUAGGAAACUAUUACGAAAAGGAAGGAGCGGCGAAGAAGCCAGGUAGGUCGCCUAUUGACAGUGAUGUUGUUAUGUAGA [#9]
172

Fill: apparent KD of K4 kissing-loop reporter (K4 kissing-loop RNA reporter) for this sequence UCCACGCUUAGAGGAUAUCGGAUUAGAGUGAUGUUCUAAAGAAGCCCAGUGAUGUUGGAUGGUAUACGAGAAGGCUGUGGCGUGU [Same State FMN B GF 4]
254

Fill: apparent KD of K4 kissing-loop reporter (K4 kissing-loop RNA reporter) for this sequence CAUAGGAAACUAUGUUUCUCUCUUACUGAAGGAGCGCGUGAAAACGCAGGUAGGUCGCAGAAUUUGAGAGUGAUGUUCUCAAUAA [Ex Arginine A K4 13]
114

###

Test system: MS2 coat protein
PROTOCOL_NOTES: apparent KD of MS2 coat protein; higher = weaker reporter binding
EXPERIMENTAL_PARAMETERS: Eterna round: R107; input ligand: none
Would you please tag the item y when its apparent KD of MS2 coat protein is 100 nM or above, and n when it is below?

Determine whether measured apparent KD of MS2 coat protein meets or exceeds 100 nM for AAGGUGAUCCCAGAUACCAGCUUAACAUGAGGAUCACCCAUGUAUGGGACGAAAGUCCCGGGCCCUUGGCAGCUGGGUUGCCAAG [SSTheo B #16]
y

Determine whether measured apparent KD of MS2 coat protein meets or exceeds 100 nM for "UGUAUGUGAUCUGAUACCAGUCCAACUGGUAAAGCAUGAGGAUCACCCAUGUAAAAUUGGGACCCUUGGCAGCAGAUCGCAUACU"
y

Determine whether measured apparent KD of MS2 coat protein meets or exceeds 100 nM for CCUAUCCAGUCGGCCGCCACUGAAAACAGUGGGUGAACAUGAGGAUCACCCAUGUCGGAAUACCGCAGGACCGGGACUGUAUAGG [Ex Tryptophan B 23]
y

Determine whether measured apparent KD of MS2 coat protein meets or exceeds 100 nM for "GGGUACAUCGCGGCCGCCACUCAUGUAAAUGCGUGAGGAUCACCCAUGCCGAUGGAGACAUCGGAGAGGACCGGGUGAUGUACCG"
n

Determine whether measured apparent KD of MS2 coat protein meets or exceeds 100 nM for ACAUGAGGAUCACCCAUGUGAAGGCACGAUACCAGCUGAUCCCGUGGCCCUUGGCAGCGUCCGGUGUGGUCCGGCGGAUGGGACG [xwxmullin]
n

###

System: K4 kissing-loop RNA reporter;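 further: bound reporter read as fluorescence of individual clusters on recovered sequencing chips by microscopy, with normalized cluster intensities fitted with a binding model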
PROTOCOL_NOTES: apparent KD of K4 kissing-loop reporter; higher = weaker reporter binding
EXPERIMENTAL_PARAMETERS: Eterna round: R107; input ligand: arginine 13.2 mM
VALUE_TYPE: apparent KD of K4 kissing-loop reporter (nM)
Output spec: scalar in nM, unitless text.

Please give the documented apparent KD of K4 kissing-loop reporter of UGAUAGGACAGAAGGAGCGGGAGUGAUGUUCCCAAAGGAAGGUCUAGCAAAGCUGGACCCUCCCAGGUAGGUCGCUGUCCUAUCU [ArgBX 4 #SwitchBubble #StaticStem]
123

Please give the documented apparent KD of K4 kissing-loop reporter of UUGGCAGUGAUGUUGCCAGACAUCACCGAAGGAGCGGGCGAAAGCCCAGGUAGGUCGCGGUAGCGGAGUGAUUCUCCGCGAGGGC [Same State Arginine A GF 23]
621

Please give the documented apparent KD of K4 kissing-loop reporter of GCAAAGGCCCAUCGGAAUUCGAGACCAGCACGAGGACCGGUACGGCCGCCACUCGUGCAGUGAUGUUGCACGAAUGGGAAACCGC [Oninanso]
103

Please give the documented apparent KD of K4 kissing-loop reporter of "AGGUCUGCACGAAGGAGCGCCCUGACAGGUUGCUGCCGUGGGCAGUGAUGUUGCUCAGUCCGGCAGGUAGGUCGCGUGCAGACCU"
109

Please give the documented apparent KD of K4 kissing-loop reporter of GCGGCGGGCCAAGGAUAUAUAUUGGAGUGAUGUUGUUCAUUUAUUUGAGCUAGUGAUGUUGGUCAGAUAGAAGGUGGCCCGCCGC [whbob_Ex_FMNB__2th216]
30.1

Please give the documented apparent KD of K4 kissing-loop reporter of AUUUUUUUGUCAGGAUAUUAGUGUGCGUUUGGUUUGUUAGUGAUGUUGAUAUUUGGUUUAUGUAUUUAAGAAGGGAUUUAGCGGU [dhbbtemullin]
480

Please give the documented apparent KD of K4 kissing-loop reporter of "GCCGCAAGGAUAGCAGCAAUAGGCGCUCGCUAGGAUAUCUGGAAACAGAGAAGGAGCUGGAGUGAUGUUUUACCUCCUAAAAUUA"
1900

Please give the documented apparent KD of K4 kissing-loop reporter of CGCCGGAAGGCGGUCGCUCCCACUCCGGAAGGAGCGCCCGGAAGGGCAGGUAGGUCGCCGGAGUGAUGUUCCGGUGGAGGGACCG [#2 Exclusion - Arginine A Attempt #10 (Inspired by Omei)]
117

Please give the documented apparent KD of K4 kissing-loop reporter of CGCGCGGGUUGAGAGGUUCGCGCGAAUGAUACCAGUAUAUAAGAAUACCCUUGGCAGCAUAAGAAAGAUAUAGUGAUGUUGUAUA [SSTheophA.G]
211

Please give the documented apparent KD of K4 kissing-loop reporter of UUUGUAUAGGGAAGGAGCGUGAAUGAUAAUGAAUAUAGUGAUGUUAUAUAUAAGAAAGAAUCACAGGUAGGUCGCCCGGAUGAGU [SSArgB.L]
323

Please give the documented apparent KD of K4 kissing-loop reporter of GCUAUGGUAGGAAGGAGCGCGGACGAAAUUUAUCGAGUGAUGUUCGAAUAAUUAAAUAAAACGCAGGUAGGUCGCCUACUAUAGC [Arginine B K4 26]
97.5

Please give the documented apparent KD of K4 kissing-loop reporter of AUUUUUUUGUCAGGAUAUUAGUAUGCUUUUGGUUUGUUAGUGAUGUUGAUAUUUUGUUUAUGUAUUUAAGAAGGGAUUUAGCGGU [etvuumullin]
276
